Target: recombinant eIF4E (Homo sapiens (Human))
Sequence (P06730 whole entry): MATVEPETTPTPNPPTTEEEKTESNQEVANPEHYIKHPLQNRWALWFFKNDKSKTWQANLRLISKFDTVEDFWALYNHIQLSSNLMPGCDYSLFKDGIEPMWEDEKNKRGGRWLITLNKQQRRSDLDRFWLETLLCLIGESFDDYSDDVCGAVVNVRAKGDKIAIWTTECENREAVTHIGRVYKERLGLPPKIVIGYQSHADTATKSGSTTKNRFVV
Experiment: Fluorescence polarization competition assay for eIF4E binding potency
Settings: fluorescence polarization competition, 75 nM recombinant eIF4E, 20 nM EDA-m7GDP-ATTO-550; IC50 class; read-out: elF4E FP
pIC50: −log10 of the molar value.
readout.label: pIC50

Some compounds with known pIC50 results, for comparison:
Cc1cc(-c2cc(Cl)ccc2OCCn2c(C)nc3c(C)nc(-c4ccccc4)c(C#N)c3c2=O)c2scc(C(=O)O)c2n1    > 7.30
Cc1nc2c(F)c(C(F)(F)F)cc(C#N)c2c(=O)n1CCOc1ccc(Cl)cc1-c1ccnc2c(C(=O)O)csc12    > 7.30

Looking up `Cc1cc(-c2cc(Cl)ccc2OCCn2c(C)nc3cc(C(F)(F)F)c(CCCN(C)C)c(C#N)c3c2=O)c2scc(C(=O)O)c2n1` , I found its pIC50 recorded as 6.00 to 7.30

Looking up `CCOc1ncc2nc(C)n(CCOc3ccc(Cl)cc3-c3cc(C)nc4c(C(=O)O)csc34)c(=O)c2c1C#N` , I found its pIC50 recorded as > 7.30

Looking up `Cc1nc2cc(C(F)(F)F)c(C3CCN(C)CC3)cc2c(=O)n1CCOc1ccc(Cl)cc1-c1ccnc2c(C(=O)O)csc12` , I found its pIC50 recorded as > 7.30

Looking up `Cc1nc2cc(C(F)(F)CN(C)C)cc(C#N)c2c(=O)n1CCOc1ccc(Cl)cc1-c1ccnc2c(C(=O)O)csc12` , I found its pIC50 recorded as > 7.30
